# System Name: Melanocortin receptor 5 (Mus musculus, UniProt P41149)
# Sequence (P41149 whole entry): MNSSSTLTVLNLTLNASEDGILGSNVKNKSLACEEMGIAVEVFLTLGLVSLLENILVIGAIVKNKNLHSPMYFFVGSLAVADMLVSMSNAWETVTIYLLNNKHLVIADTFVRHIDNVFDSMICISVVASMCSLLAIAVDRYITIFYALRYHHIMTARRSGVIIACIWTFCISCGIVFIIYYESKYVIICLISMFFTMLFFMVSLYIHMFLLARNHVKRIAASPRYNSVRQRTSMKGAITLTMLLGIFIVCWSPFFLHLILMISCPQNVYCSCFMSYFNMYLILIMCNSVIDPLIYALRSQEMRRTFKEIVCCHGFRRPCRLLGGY
# Experiment Notes: Agonist activity on mouse melanocortin 5 receptor (mMC5R) stably expressed in […] cells
Note to self: EC50 under 20 µM means fulfilled, ties and anything higher get not fulfilled.

The examples below pair each entry with its known result.
Structure Smiles String: NCCCCNC(=O)[C@H](Cc1c[nH]c2ccccc12)NC(=O)NN1CCc2ccccc2C1
Group: fulfilled

Structure Smiles String: NCCCCNC(=O)[C@H](Cc1c[nH]c2ccccc12)NC(=O)NCc1ccccc1
Group: not fulfilled

Structure Smiles String: Cc1cccc(CNC(=O)[C@H](Cc2c[nH]c3ccccc23)NC(=O)NCc2ccccc2)c1
Group: not fulfilled

Structure Smiles String: NCCCCNC(=O)[C@@H](Cc1c[nH]c2ccccc12)NC(=O)NCc1ccccc1
Group: not fulfilled

Structure Smiles String: NCc1ccc(NC(=O)[C@H](Cc2c[nH]c3ccccc23)NC(=O)NCc2ccccc2)cc1
Group: fulfilled

Qu. Determine whether this compound shows EC50 lower than 20 µM (ties excluded): NCCCCNC(=O)[C@H](Cc1c[nH]c2ccccc12)NC(=O)NCCc1ccccc1
Ans. not fulfilled

Qu. Determine whether this compound shows EC50 lower than 20 µM (ties excluded): NCCCCNC(=O)[C@H](Cc1c[nH]c2ccccc12)NC(=O)NN1CCC(Cc2ccccc2)CC1
Ans. not fulfilled

Qu. Determine whether this compound shows EC50 lower than 20 µM (ties excluded): CC1CCN(CNC(=O)[C@H](Cc2c[nH]c3ccccc23)NC(=O)NCc2ccccc2)CC1
Ans. fulfilled

---

EC50 reference
# System Name: Melanocortin receptor 4 (Mus musculus)
# Sequence (P56450 whole entry): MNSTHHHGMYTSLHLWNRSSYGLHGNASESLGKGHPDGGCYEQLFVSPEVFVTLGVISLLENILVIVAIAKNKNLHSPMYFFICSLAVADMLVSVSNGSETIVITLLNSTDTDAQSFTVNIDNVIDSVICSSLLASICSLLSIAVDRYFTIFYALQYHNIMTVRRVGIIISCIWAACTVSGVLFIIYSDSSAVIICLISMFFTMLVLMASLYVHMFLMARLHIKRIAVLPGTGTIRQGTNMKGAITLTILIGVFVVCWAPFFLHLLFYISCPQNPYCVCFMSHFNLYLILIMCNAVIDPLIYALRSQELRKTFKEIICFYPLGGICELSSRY
# Experiment Notes: Agonist activity on mouse melanocortin 4 receptor (mMC4R) stably expressed in […] cells

Structure Smiles String: Cc1cccc(CNC(=O)[C@H](Cc2c[nH]c3ccccc23)NC(=O)NCc2ccccc2)c1
Quantity Name: EC50
Test Result: > 100 µM

EC50 recorded for this compound, NCCCCNC(=O)[C@H](Cc1c[nH]c2ccccc12)NC(=O)NN1CCC(Cc2ccccc2)CC1 , is 100 µM

EC50 recorded for this compound, NCCCCNC(=O)[C@H](Cc1c[nH]c2ccccc12)NC(=O)NCCc1ccccc1 , is > 100 µM

EC50 recorded for this compound, NCCCNC(=O)[C@H](Cc1c[nH]c2ccccc12)NC(=O)NCc1ccccc1 , is > 100 µM

EC50 recorded for this compound, NCCCCCCNC(=O)[C@H](Cc1c[nH]c2ccccc12)NC(=O)NCc1ccccc1 , is > 100 µM

EC50 recorded for this compound, CC1CCN(CNC(=O)[C@H](Cc2c[nH]c3ccccc23)NC(=O)NCc2ccccc2)CC1 , is > 100 µM

EC50 recorded for this compound, NCCCCNC(=O)[C@H](Cc1c[nH]c2ccccc12)NC(=O)NCc1ccccc1 , is 23.7 µM

EC50 recorded for this compound, NCCCCCNC(=O)[C@H](Cc1c[nH]c2ccccc12)NC(=O)NCc1ccccc1 , is > 100 µM

EC50 recorded for this compound, NCc1ccc(NC(=O)[C@H](Cc2c[nH]c3ccccc23)NC(=O)NCc2ccccc2)cc1 , is 0.4 µM

---

# System Name: Melanocortin receptor 3 (Mus musculus)
# Sequence (P33033 whole entry): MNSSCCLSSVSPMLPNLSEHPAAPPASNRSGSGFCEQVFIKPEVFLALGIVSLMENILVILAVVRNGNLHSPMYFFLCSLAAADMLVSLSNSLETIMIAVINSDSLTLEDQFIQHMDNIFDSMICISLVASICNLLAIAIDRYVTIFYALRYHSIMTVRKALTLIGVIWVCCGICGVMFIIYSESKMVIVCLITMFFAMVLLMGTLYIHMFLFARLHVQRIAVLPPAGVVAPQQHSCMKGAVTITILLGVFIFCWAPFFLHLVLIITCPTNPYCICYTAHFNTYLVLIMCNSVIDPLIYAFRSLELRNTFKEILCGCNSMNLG
# Experiment Notes: Agonist activity on mouse Melanocortin 3 receptor (mMC3R) stably expressed in HEK cells
EC50 reference

Structure Smiles String: NCCCCNC(=O)[C@H](Cc1c[nH]c2ccccc12)NC(=O)NC1CCN(Cc2ccccc2)CC1
Test Result: 4.4 µM

EC50 recorded for this molecule, NCCCCNC(=O)[C@H](CCc1ccccc1)NC(=O)NCc1ccccc1 , is > 100 µM

EC50 recorded for this molecule, NCCCCCNC(=O)[C@H](Cc1c[nH]c2ccccc12)NC(=O)NCc1ccccc1 , is > 100 µM

EC50 recorded for this molecule, NCCCNC(=O)[C@H](Cc1c[nH]c2ccccc12)NC(=O)NCc1ccccc1 , is > 100 µM

EC50 recorded for this molecule, NCCCCCCNC(=O)[C@H](Cc1c[nH]c2ccccc12)NC(=O)NCc1ccccc1 , is > 100 µM
